The origin of these recorded values is patent US20220378931A1.

- target desc: T1, rat serum albumin (rat, UniProt P02770 25-608)
- T1 construct: bought protein, amine-coupled to a CM5 chip; also called Rat SA; RSA
- protocol description: SPR (Biacore 8K), albumin immobilised, 25 C, 1:1 kinetics
measured quantity: koff (s⁻¹)

{"columns": ["binder", "obs value"],
 "data": [
  ["INS Analog 24 (other, single-chain insulin B-L2-A-L1-VHH fusion; also called Ex. 24) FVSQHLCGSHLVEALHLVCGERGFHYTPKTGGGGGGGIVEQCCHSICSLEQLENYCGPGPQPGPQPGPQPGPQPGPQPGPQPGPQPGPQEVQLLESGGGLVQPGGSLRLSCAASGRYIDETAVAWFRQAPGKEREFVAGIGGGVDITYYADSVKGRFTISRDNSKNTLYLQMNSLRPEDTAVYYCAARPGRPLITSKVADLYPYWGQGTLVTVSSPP", 0.0057],
  ["INS Analog 28 (other, single-chain insulin B-L2-A-L1-VHH fusion; also called Ex. 28) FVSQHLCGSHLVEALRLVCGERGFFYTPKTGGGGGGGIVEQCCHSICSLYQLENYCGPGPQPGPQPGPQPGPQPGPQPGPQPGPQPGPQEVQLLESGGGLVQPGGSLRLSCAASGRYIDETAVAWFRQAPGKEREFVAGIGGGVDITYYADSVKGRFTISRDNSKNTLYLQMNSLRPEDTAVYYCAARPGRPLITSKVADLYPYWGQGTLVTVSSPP", 0.0048],
  ["INS Analog 23 (other, single-chain insulin B-L2-A-L1-VHH fusion; also called Ex. 23) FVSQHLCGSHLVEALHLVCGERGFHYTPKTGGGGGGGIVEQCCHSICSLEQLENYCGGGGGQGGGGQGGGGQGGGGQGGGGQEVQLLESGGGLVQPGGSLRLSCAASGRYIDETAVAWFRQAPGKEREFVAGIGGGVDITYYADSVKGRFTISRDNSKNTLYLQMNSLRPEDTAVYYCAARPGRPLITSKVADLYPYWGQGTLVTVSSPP", 0.0065],
  ["INS Analog 26 (other, single-chain insulin B-L2-A-L1-VHH fusion; also called Ex. 26) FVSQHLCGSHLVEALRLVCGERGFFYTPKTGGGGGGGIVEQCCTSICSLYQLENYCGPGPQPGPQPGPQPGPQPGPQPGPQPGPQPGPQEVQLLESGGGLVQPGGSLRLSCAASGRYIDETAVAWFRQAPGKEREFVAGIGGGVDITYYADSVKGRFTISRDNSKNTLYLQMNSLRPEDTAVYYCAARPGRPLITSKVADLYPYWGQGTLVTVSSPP", 0.0056],
  ["INS Analog 30 (other, single-chain insulin B-L2-A-L1-VHH fusion; also called Ex. 30) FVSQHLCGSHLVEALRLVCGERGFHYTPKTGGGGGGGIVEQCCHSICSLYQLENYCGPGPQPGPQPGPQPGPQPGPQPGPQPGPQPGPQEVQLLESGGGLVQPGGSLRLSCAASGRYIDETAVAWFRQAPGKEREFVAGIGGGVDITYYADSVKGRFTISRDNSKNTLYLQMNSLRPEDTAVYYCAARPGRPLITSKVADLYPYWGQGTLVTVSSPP", 0.0051]
]}
